Molecular target: SARS-CoV-2 spike protein on live SARS-CoV-2 virus (SARS-CoV-2, UniProt P0DTC2 14-1273)
Test: cell-based or functional assay
Assay Endpoint: IC50, live SARS-CoV-2 미세중화분석, Vero 세포 (nM)
Numbers only, in nM.

Some entries whose results are on file:
- SA4055 (antibody, V domains shown) VH: EVQLVQSGGGLVQPGGSLRLSCAASVITVSSNYMSWVRQAPGKGLEWVSVIYPGGSTYYADSVKGRFTISRDKSKNTLYLQMNSLRAEDTAVYYCARDLDIVGGMDVWGQGTTVTVSS VL: QSALTQPASVSGSPGQSITISCTGTSSDVGDYNLVSWYQQHPGKAPKVMIYDVSHRPSGVSNRFSGSKSGNTASLTISGLQAEDEADYYCSSYTSSTTVVFGGGTKLTVL: 7
- SA4056 (antibody, V domains shown) VH: QVQLQESGGGLVQPGGSLRLSCAASVITVSSNYMSWVRQAPGKGLEWVSVIYPGGSTYYADSVKGRFTISRDKSKNTLYLQMNSLRAEDTAVYYCARDLDIVGGMDVWGQGTTVTVSS VL: DIQMTQSPSTLSASVGDRVTITCRASQSISRWLAWYQQKPGQAPKLLIYAASTLQSGVPSRFSGSGSGTEFTLTISSLQPDDFATYYCQQYDSYPRTFGQGTKVDIK: 11.3

# context switch: different binder, same IC50, live SARS-CoV-2 미세중화분석, Vero 세포
Recorded IC50, live SARS-CoV-2 미세중화분석, Vero 세포 of SA4053 (antibody, V domains shown) VH: EVQLVQSGGGLVQPGGSLRLSCADSGFTFSSYWMSWVRQVPGKGLEWVANIKQDGSEKYYVDSVKGRFTISRDNAKNSLYLQMNSLRAEDTAVYYCARDVGRGYCSSTSCYRFGGREDFFDYWGQGTLVTVSS VL: QLVLTQPPSVSAAPGQRVTISCSGSFSNVGNNFVSWYRHLPGTAPELLIYDNNQRPSGIPDRFSASKSGTSATLAITGLHTGDEADYYCGTWDTSLSGVVFGGGTKLTVL , please. 346
